Test system: K-562 leukemia
procedure_details: NCI-60 one-dose screen, 48 h
condition_notes: 10 µM unless noted
About 83,000 compounds went through this panel and 20% of them were active in at least one assay; those are over-represented in the sample as a whole. Activity calls are given as the source filed them. The calls were made as follows: active = growth percent below 10; inactive = the rest.
# valid calls are true for active, false for inactive; nothing else

# count of solved cases: 5
Cc1cc(NCc2cc(Nc3ccnc4cc(Cl)ccc34)ccc2F)nc(N2CCCC2)n1
true
NC(=N\N=C/c1ccccc1[N+](=O)[O-])/C(N)=N\N=C/c1ccccc1[N+](=O)[O-]
false
COc1cccc(-c2nn(-c3ccccc3)cc2-c2ccnc(NCCCNC(=O)c3ccc(F)cc3)c2)c1
false
Cc1cccc(NC(=O)CSc2nc3ccccc3[nH]2)c1
false
COC1=CC(=O)C[C@@H](C)[C@]12Oc1c(Cl)c(OC)cc(OC)c1C2=O
false

Called result for CCN1CCN(c2cc(C)nc(NCc3cc(Nc4ccnc5cc(Cl)ccc45)ccc3F)n2)CC1
true

Called result for O=C1NC(=Nc2ccc(Cl)cc2)S/C1=C\c1cn(-c2ccccc2)nc1-c1ccccc1
false

Called result for COc1cc(/C=C2\C(=O)ON=C2C)cc(OC)c1OC
false

Called result for N=C1C(c2nc(-c3ccc(Br)cc3)cs2)=C(O)CN1CC1CCCO1 (stereo not given)
false

Called result for Cc1ccc(/C=C2\C(=O)N(C)c3ccc(S(=O)(=O)Nc4ccc(C(C)(C)C)cc4)cc32)s1
false

Attribution: PubChem BioAssay (NCI)
